# protocol-summary: gradient 5% acetonitrile 3 min, to 50% in 2 min, to 85% in 15 min, held 3 min, 100 µL/min
# protocol-conditions: column: Zorbax Extend-C18 2.1 x 50 mm; eluents: water / acetonitrile, 0.1% formic acid
measured-parameter: RP-LC retention time (s)

| molecule | RP-LC retention time [s] |
| --- | --- |
| COc1ccc(-c2noc(-c3nnn4c3COC(c3ccc(C)cc3C)C4)n2)c(OC)c1 (centres undefined) | 1170 |
| CCC(=O)N1CCCN(C2=NS(=O)(=O)C(c3ccc(Cl)cc3)=C2C)CC1 | 661 |
| O=C(Nc1ccc(OCc2cc(C(=O)NC3CC3)no2)cc1)c1ccc(Cl)cc1 | 872 |
| Cc1noc(C)c1C1CCCN1C(=O)c1cc(-c2ccccc2F)no1 (centres undefined) | 859 |
| COc1ccc(CNC(=O)C2CCN(c3nnc4cccc(C)n34)CC2)cc1 | 646 |
| O=C(NCCc1csc2nc(-c3cccs3)nn12)c1c(F)cccc1Cl | 792 |
| CCn1ccc(NC(=O)NC2CCCCC2)n1 | 779 |

A. c1ccc(N2CCN(c3c4c(nc5ncnn35)CCC4)CC2)nc1
B. CCOc1ccc(-c2noc(Cn3cnc4c(cnn4-c4ccc(OC)cc4)c3=O)n2)cc1OC
Kindly identify the item with the lower RP-LC retention time figure among these two: A and B State your choice using its label.
A
(A: 563 s, B: 973 s)

* * *

# protocol-summary: gradient 5% acetonitrile 3 min, to 50% in 2 min, to 85% in 15 min, held 3 min, 100 µL/min
# protocol-conditions: column: Zorbax Extend-C18 2.1 x 50 mm; eluents: water / acetonitrile, 0.1% formic acid
measured-parameter: RP-LC retention time (s)

| compound | RP-LC retention time [s] |
| --- | --- |
| CN1c2ccc(Cl)cc2C(=O)NC12CCN(C(=O)c1ccc(F)cc1)CC2 | 818 |
| Cc1noc(C2CN(CCCc3ccccc3)CC23CCCC3)n1 (centres undefined) | 1020 |
| COc1ccc(N2CCN(S(=O)(=O)c3cc(-c4nnc(C5CCC5)o4)co3)CC2)cc1 | 1000 |
| COc1ccc(CN2C=C(C(=O)OCc3noc(-c4ccccc4C)n3)C(C)=NS2(=O)=O)cc1 | 861 |
| O=C(CN1CCCC(COCc2ccccc2)C1)NCc1ccc2c(c1)OCO2 (centres undefined) | 592 |
| O=S(=O)(Cc1cccc(Cl)c1)NCC1CCN(Cc2ccco2)CC1 | 573 |
| CCN1C(=O)COc2ccc(-c3csc(NC(=O)CCC4CCCCC4)n3)cc21 | 934 |
| Cc1csc(NC(=O)C2CC(=O)N(c3n[nH]c4cccc(F)c34)C2)n1 (centres undefined) | 664 |
| CCCn1cc(CCNC(=O)c2ccc(C)cc2C)c2cccnc21 | 799 |

* * *

# protocol-summary: gradient 5% acetonitrile 3 min, to 50% in 2 min, to 85% in 15 min, held 3 min, 100 µL/min
# protocol-conditions: column: Zorbax Extend-C18 2.1 x 50 mm; eluents: water / acetonitrile, 0.1% formic acid
measured-parameter: RP-LC retention time (s)

Answered examples (5):
| compound | RP-LC retention time / s |
| --- | --- |
| CO[C@@H]1[C@H](OC(=O)/C=C/C=C/C=C/C=C/C(=O)O)CC[C@]2(CO2)[C@H]1[C@@]1(C)O[C@@H]1CC=C(C)C | 954 |
| CCc1cccc(-n2nnc(C(=O)O)c2CC)c1 | 788 |
| CCc1nnc2nc(N3CCN(C(=O)COc4ccc(F)cc4)CC3)cc(C)n12 | 621 |
| Cc1ccccc1NC(=O)N1CC(F)(F)C[C@H]1CN1CCCC1 | 622 |
| CCOc1ccccc1CNC(=O)C1CCCN(c2nnc3ccc(Cl)cn23)C1 (stereo not given) | 826 |

P. COc1ccccc1NC(=O)NC1CCCC(OC(=O)Nc2ccc(F)cc2)C1 (stereo not given)
Q. O=C(COc1ccc(F)c(F)c1)N1CCC(Nc2cccnc2)C1 (stereo not given)
Just curious, which one has the larger RP-LC retention time reading, P or Q ? Give the chosen item's label as your response.
P

A. COc1ccc(CNC(=O)C2CC(=O)N(c3ccc4c(c3)CCN4C(C)=O)C2)cc1 (stereo not given)
B. C=CCn1c(=O)c2ccccc2n(Cc2nc(-c3ccc(Cl)c(F)c3)no2)c1=O
Which entry has a larger number for RP-LC retention time, A or B ? When you have decided, please share the label of that item.
B
(B: 1120 s, A: 664 s)
